assay: Drug metabolism in human intestine microsomes assessed as 16-epiestriol-17-glucuronide formation after 15 to 60 mins by Michaelis-Menten equation analysis in presence of UDPGA; format: ADME
assayMetric: Km (µM)
Report only the number, with the unit µM understood.

Req: Give the reported value of Km for this record: C[C@]12CC[C@@H]3c4ccc(O)cc4CC[C@H]3[C@@H]1C[C@H](O)[C@@H]2O [EPIESTRIOL]
Resp: 1170

---

assay: Drug metabolism in human intestine microsomes assessed as 17-epiestriol-16-glucuronide formation after 15 to 60 mins by Michaelis-Menten equation analysis in presence of UDPGA; assay type: ADME
assayMetric: Km (µM)
Supply the numeric figure in µM, leaving out any unit text.

Req: Using known records, supply Km for "C[C@]12CC[C@@H]3c4ccc(O)cc4CC[C@H]3[C@@H]1C[C@@H](O)[C@H]2O"
Resp: 820
